Entries and their measured DC50 follow.
Target: IKZF2 (Homo sapiens, UniProt Q96SW2+Q9UKS7)
Construct: CRISPR/Cas9—mediated insertion of the HiBiT peptide tag (Promega™) to the N-terminus of the IKZF2 gene locus; endogenous in cells; host or cells: MOLT4 cells, with CRISPR/Cas9 knock-in of HiBiT at the endogenous IKZF2 locus
Sequence (Q9UKS7 whole entry): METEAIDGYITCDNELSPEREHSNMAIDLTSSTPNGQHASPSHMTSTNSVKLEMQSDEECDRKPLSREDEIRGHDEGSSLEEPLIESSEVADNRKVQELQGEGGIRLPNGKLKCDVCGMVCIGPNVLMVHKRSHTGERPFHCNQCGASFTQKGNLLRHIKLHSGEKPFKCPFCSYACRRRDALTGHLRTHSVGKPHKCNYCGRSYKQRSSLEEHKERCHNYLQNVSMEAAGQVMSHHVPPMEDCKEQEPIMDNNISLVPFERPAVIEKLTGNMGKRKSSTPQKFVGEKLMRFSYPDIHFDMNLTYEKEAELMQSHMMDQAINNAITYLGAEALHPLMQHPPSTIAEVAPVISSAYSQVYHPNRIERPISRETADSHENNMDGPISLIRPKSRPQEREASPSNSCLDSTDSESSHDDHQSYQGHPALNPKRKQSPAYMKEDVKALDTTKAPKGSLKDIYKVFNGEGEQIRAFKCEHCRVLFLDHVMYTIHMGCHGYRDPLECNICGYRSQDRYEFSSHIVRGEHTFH
Sequence (Q96SW2 whole entry): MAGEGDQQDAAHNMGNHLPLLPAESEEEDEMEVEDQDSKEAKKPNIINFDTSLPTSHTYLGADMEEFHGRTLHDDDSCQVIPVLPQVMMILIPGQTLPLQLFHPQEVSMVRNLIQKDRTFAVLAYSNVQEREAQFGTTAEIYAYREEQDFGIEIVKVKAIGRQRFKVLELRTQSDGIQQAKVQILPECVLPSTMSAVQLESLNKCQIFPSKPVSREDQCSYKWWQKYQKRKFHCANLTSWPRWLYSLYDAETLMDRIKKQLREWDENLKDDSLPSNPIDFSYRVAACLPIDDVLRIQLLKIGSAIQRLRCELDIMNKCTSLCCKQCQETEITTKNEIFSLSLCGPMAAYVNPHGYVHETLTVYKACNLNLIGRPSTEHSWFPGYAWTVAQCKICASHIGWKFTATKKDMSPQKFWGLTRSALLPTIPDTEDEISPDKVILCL
Sequence (Q16531 whole entry partner): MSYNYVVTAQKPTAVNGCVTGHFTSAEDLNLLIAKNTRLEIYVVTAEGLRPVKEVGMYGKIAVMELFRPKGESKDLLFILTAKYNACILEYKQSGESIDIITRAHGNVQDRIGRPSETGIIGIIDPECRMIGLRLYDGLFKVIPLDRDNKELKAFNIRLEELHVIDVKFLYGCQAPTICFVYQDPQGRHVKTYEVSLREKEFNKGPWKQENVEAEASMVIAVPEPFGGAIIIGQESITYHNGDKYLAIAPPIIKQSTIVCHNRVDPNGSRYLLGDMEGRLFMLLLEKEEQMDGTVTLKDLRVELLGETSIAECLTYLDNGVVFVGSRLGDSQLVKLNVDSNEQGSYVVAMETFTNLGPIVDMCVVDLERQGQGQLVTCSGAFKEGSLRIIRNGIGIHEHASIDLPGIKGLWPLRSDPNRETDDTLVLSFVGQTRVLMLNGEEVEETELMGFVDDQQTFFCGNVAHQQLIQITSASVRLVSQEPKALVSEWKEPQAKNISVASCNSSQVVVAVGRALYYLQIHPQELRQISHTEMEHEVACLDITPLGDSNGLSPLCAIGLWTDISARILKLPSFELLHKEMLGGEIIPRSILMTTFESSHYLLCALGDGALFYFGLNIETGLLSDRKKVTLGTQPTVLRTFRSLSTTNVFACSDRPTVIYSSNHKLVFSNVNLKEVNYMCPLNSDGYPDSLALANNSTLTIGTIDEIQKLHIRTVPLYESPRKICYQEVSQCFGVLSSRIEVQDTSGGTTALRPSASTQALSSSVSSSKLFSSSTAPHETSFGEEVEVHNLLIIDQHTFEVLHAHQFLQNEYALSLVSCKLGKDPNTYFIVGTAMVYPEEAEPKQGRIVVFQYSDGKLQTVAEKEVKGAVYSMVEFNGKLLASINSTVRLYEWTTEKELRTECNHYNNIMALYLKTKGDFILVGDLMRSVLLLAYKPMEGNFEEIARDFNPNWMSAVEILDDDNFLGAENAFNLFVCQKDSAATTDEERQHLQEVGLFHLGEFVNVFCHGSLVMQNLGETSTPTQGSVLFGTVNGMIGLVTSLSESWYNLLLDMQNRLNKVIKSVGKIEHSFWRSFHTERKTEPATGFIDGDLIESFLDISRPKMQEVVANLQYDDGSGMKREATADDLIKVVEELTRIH
Assay: HiBit-IKZF2 assay (HiBiT-Helios degradation in MOLT4 cells)
Type: cell-based
Conditions: concentration at which 50% of HiBiT-Helios degradation was achieved
experimental readout: DC50

>>> result("O=C1CCC(N2Cc3cc(C4(O)CCN(Cc5ccccc5-c5ccccc5)CC4)ccc3C2=O)C(=O)N1 (centres unmarked)")
"< 10 nM"
>>> result("Cc1ccnc(Nc2cccc(CN3CCC(c4ccc5c(c4)CN(C4CCC(=O)NC4=O)C5=O)CC3)c2)n1 (centres unmarked)")
"< 10 nM"
>>> result("O=C1CCC(N2Cc3cc(C4CCN(Cc5cccc(S(=O)(=O)N6CC7C(C6)C7(F)F)c5)CC4)ccc3C2=O)C(=O)N1 (centres unmarked)")
"< 10 nM"
>>> result("CN(c1ccccc1)S(=O)(=O)c1ccc(CN2CCC(c3ccc4c(c3)CN(C3CCC(=O)NC3=O)C4=O)CC2)cc1 (centres unmarked)")
"< 10 nM"
>>> result("N#Cc1ccccc1CN1CCC(O)(c2ccc3c(c2)CN(C2CCC(=O)NC2=O)C3=O)CC1 (centres unmarked)")
"< 10 nM"
>>> result("O=C1CCC(N2Cc3cc(C4CCN(Cc5ccc6c(c5)S(=O)(=O)N(c5ccccc5)C6)CC4)ccc3C2=O)C(=O)N1 (centres unmarked)")
"30 to 150 nM"
>>> result("O=C1CCC(N2Cc3cc(C4CCN(Cc5cccc(N6CCN(c7ccccc7)C6=O)c5)CC4)ccc3C2=O)C(=O)N1 (centres unmarked)")
"30 to 150 nM"
>>> result("O=C1CCC(N2Cc3cc(C4CCN(Cc5ccc(Nc6ccccn6)cc5)CC4)ccc3C2=O)C(=O)N1 (centres unmarked)")
"30 to 150 nM"
>>> result("O=C1CCC(N2Cc3cc(C4(O)CCN(Cc5ccc6c(c5)OCCCO6)CC4)ccc3C2=O)C(=O)N1 (centres unmarked)")
"< 10 nM"
>>> result("O=C1CCC(N2Cc3cc(C4CCN(Cc5ccccc5N5Cc6ccccc6C5=O)CC4)ccc3C2=O)C(=O)N1 (centres unmarked)")
"30 to 150 nM"
>>> result("O=C1CCC(N2Cc3cc(C4CCN(Cc5ccc6c(c5)C(=O)N(c5ccns5)C6)CC4)ccc3C2=O)C(=O)N1 (centres unmarked)")
"< 10 nM"
>>> result("O=C1CCC(N2Cc3cc(C4CCN(Cc5ccnc(Nc6ccccc6)c5F)CC4)ccc3C2=O)C(=O)N1 (centres unmarked)")
"10 to 30 nM"
>>> result("O=C1CCC(N2Cc3cc(C4CCN(Cc5ccc6c(c5)C(=O)N(c5cccc(Cl)c5)C6)CC4)ccc3C2=O)C(=O)N1 (centres unmarked)")
"30 to 150 nM"
>>> result("O=C1CCC(N2Cc3cc(C4CCN(Cc5cccc(N6Cc7ccccc7C6=O)c5)CC4)ccc3C2=O)C(=O)N1 (centres unmarked)")
"< 10 nM"

###

Entries and their measured Dmax follow.
Target: IKZF2 (Homo sapiens, UniProt Q96SW2+Q9UKS7)
Construct: CRISPR/Cas9—mediated insertion of the HiBiT peptide tag (Promega™) to the N-terminus of the IKZF2 gene locus; endogenous in cells; host or cells: MOLT4 cells, with CRISPR/Cas9 knock-in of HiBiT at the endogenous IKZF2 locus
Experiment: HiBit-IKZF2 assay (HiBiT-Helios degradation in MOLT4 cells)
Format: cell-based
Settings: MOLT-4, extent of degradation from highest to lowest concentration, 10 μM to 0.00026 μM, read-out: Dmax
Text: The HiBiT protein tagging system was applied to MOLT4 cells via a CRISPR/Cas9—mediated insertion of the HiBiT peptide tag (Promega™) to the N-terminus of the IKZF2 gene locus (Neon™ Transfection System). […] At the indicated timepoints, the Nano-Glo® HiBiT Lytic Detection System (Promega™) was utilized for detecting bioluminescence of the HiBiT tag in treated cells: abundance of the tag is proportionate to the level of luminescence. […]
experimental readout: Dmax

>>> result("O=C1CCC(N2Cc3cc(C4(O)CCN(Cc5cccc(F)c5Cl)CC4)ccc3C2=O)C(=O)N1 (centres unmarked) [Compound 254]")
"> 70%"
>>> result("CN(c1cccc(CN2CCC(c3ccc4c(c3)CN(C3CCC(=O)NC3=O)C4=O)CC2)c1)c1ncccn1 (centres unmarked) [Compound 232]")
"50 to 70%"
>>> result("Cc1ccnc(Nc2cccc(CN3CCC(c4ccc5c(c4)CN(C4CCC(=O)NC4=O)C5=O)CC3)c2)n1 (centres unmarked) [Compound 229]")
"50 to 70%"
>>> result("O=C1CCC(N2Cc3cc(C4CCN(Cc5cccc(S(=O)(=O)N6CCC7(CC7)C6)c5)CC4)ccc3C2=O)C(=O)N1 (centres unmarked) [Compound 60]")
"50 to 70%"
>>> result("O=C1CCC(N2Cc3cc(C4(O)CCN(Cc5ccc(-c6ccccc6)cc5)CC4)ccc3C2=O)C(=O)N1 (centres unmarked) [Compound 206]")
"> 70%"
>>> result("O=C1CCC(N2Cc3cc(C4CCN(Cc5cccc6c5C(=O)N(c5ccccc5)C6)CC4)ccc3C2=O)C(=O)N1 (centres unmarked) [Compound 121]")
"30 to 50%"
>>> result("O=C1CCC(N2Cc3cc(C4CCN(Cc5ccc6c(c5)C(=O)N(c5ccsn5)C6)CC4)ccc3C2=O)C(=O)N1 (centres unmarked) [Compound 223]")
"50 to 70%"
>>> result("O=C1CCC(N2Cc3cc(C4(O)CCN(Cc5ccc6c(c5)CCCO6)CC4)ccc3C2=O)C(=O)N1 (centres unmarked) [Compound 275]")
"> 70%"
>>> result("O=C1CCC(N2Cc3cc(C4CCN(Cc5ccc(Nc6ccccn6)cc5)CC4)ccc3C2=O)C(=O)N1 (centres unmarked) [Compound 145]")
"50 to 70%"
>>> result("O=C1CCC(N2Cc3cc(C4(O)CCN(Cc5ccccc5Cl)CC4)ccc3C2=O)C(=O)N1 (centres unmarked) [Compound 267]")
"> 70%"
>>> result("O=C1CCC(N2Cc3cc(C4CCN(Cc5ccc(S(=O)(=O)Nc6ccccc6)cc5)CC4)ccc3C2=O)C(=O)N1 (centres unmarked) [Compound 91]")
"50 to 70%"
>>> result("CN(C(=O)c1ccccc1)c1ccc(CN2CCC(c3ccc4c(c3)CN(C3CCC(=O)NC3=O)C4=O)CC2)cc1 (centres unmarked) [Compound 170]")
"50 to 70%"
>>> result("O=C1CCC(N2Cc3cc(C4(O)CCN(Cc5cccc(Cl)c5)CC4)ccc3C2=O)C(=O)N1 (centres unmarked) [Compound 207]")
"> 70%"
>>> result("O=C1CCC(N2Cc3cc(C4CCN(Cc5cccc(Nc6ncc(F)cn6)c5)CC4)ccc3C2=O)C(=O)N1 (centres unmarked) [Compound 226]")
"30 to 50%"
>>> result("O=C1CCC(N2Cc3cc(C4(O)CCN(Cc5csc(-c6ccccc6)n5)CC4)ccc3C2=O)C(=O)N1 (centres unmarked) [Compound 33]")
"> 70%"
>>> result("O=C1CCC(N2Cc3cc(C4CCN(Cc5ccccc5C(=O)N5CC6C(C5)C6(F)F)CC4)ccc3C2=O)C(=O)N1 (centres unmarked) [Compound 111]")
"30 to 50%"
>>> result("O=C1CCC(N2Cc3cc(C4(O)CCN(Cc5ccc6c(c5)C(=O)N(c5ccccc5)C6)CC4)ccc3C2=O)C(=O)N1 (centres unmarked) [Compound 200]")
"> 70%"
>>> result("CC(c1ccccc1)N1CCC(O)(c2ccc3c(c2)CN(C2CCC(=O)NC2=O)C3=O)CC1 (centres unmarked) [Compound 269]")
"> 70%"
>>> result("O=C1CCC(N2Cc3cc(C4CCN(Cc5cccc(Nc6ncc(F)cn6)c5F)CC4)ccc3C2=O)C(=O)N1 (centres unmarked) [Compound 230]")
"50 to 70%"
>>> result("N#CC1(COc2ccc(CN3CCC(c4ccc5c(c4)CN(C4CCC(=O)NC4=O)C5=O)CC3)cc2)CC1 (centres unmarked) [Compound 45]")
"50 to 70%"
>>> result("O=C1CCC(N2Cc3cc(C4(O)CCN(Cc5cccc6cccnc56)CC4)ccc3C2=O)C(=O)N1 (centres unmarked) [Compound 280]")
"> 70%"
>>> result("O=C1CCC(N2Cc3cc(C4CCN(Cc5cccc(Nc6ccsn6)c5)CC4)ccc3C2=O)C(=O)N1 (centres unmarked) [Compound 233]")
"50 to 70%"
>>> result("O=C1CCC(N2Cc3cc(C4(O)CCN(Cc5ccccc5)C4)ccc3C2=O)C(=O)N1 (centres unmarked) [Compound 210]")
"30 to 50%"
>>> result("O=C1CCC(N2Cc3cc(C4(O)CCN(Cc5ccc6ncccc6c5)CC4)ccc3C2=O)C(=O)N1 (centres unmarked) [Compound 279]")
"> 70%"
>>> result("O=C1CCC(N2Cc3cc(C4(O)CCN(Cc5ccc6ncsc6c5)CC4)ccc3C2=O)C(=O)N1 (centres unmarked) [Compound 242]")
"> 70%"
>>> result("N#Cc1ccccc1N1Cc2ccc(CN3CCC(c4ccc5c(c4)CN(C4CCC(=O)NC4=O)C5=O)CC3)cc2C1=O (centres unmarked) [Compound 179]")
"50 to 70%"
>>> result("O=C1CCC(N2Cc3cc(C4(O)CCN(Cc5cnc(-c6ccccc6)s5)CC4)ccc3C2=O)C(=O)N1 (centres unmarked) [Compound 240]")
"> 70%"
>>> result("O=C1CCC(N2Cc3cc(C4CCN(Cc5cnc(Nc6ccccc6)s5)CC4)ccc3C2=O)C(=O)N1 (centres unmarked) [Compound 148]")
"50 to 70%"
>>> result("O=C1CCC(N2Cc3cc(C4CCN(Cc5ccc6c(c5)C(=O)N(c5cnsc5)C6)CC4)ccc3C2=O)C(=O)N1 (centres unmarked) [Compound 222]")
"50 to 70%"

Data provenance is patent US20230002397A1.
